test system: HeLa cells; assay: cytotoxicity by crystal violet staining; type: cell-based; settings: 1 μM, Dark, 40 h
Structures can show the parent of a compound that is named as a salt.
Experimental Readout: mean fold growth (fold)

[[record]]
compound = "COc1ccc(N=Nc2cc(OC)c(OC)c(OC)c2)cc1NC(=O)[C@@H](N)CO [I.20, 2,2,2-trifluoroacetate salt]"
experimental_readout = "mean fold growth"
recorded_number = 1.12

[[record]]
compound = "COc1ccc(N=Nc2cc(OC)c(OC)c(OC)c2)cc1OC(=O)N1CCCCC1CNC(=O)[C@@H](N)CC(C)C (stereo partly shown) [I.10, 2,2,2-trifluoroacetate salt]"
experimental_readout = "mean fold growth"
recorded_number = 0.92

[[record]]
compound = "COc1ccc(N=Nc2cc(OC)c(OC)c(OC)c2)cc1N"
experimental_readout = "mean fold growth"
recorded_number = 0.89

[[record]]
compound = "COc1ccc(N=Nc2cc(OC)c(OC)c(OC)c2)cc1 [I.6, reference compound]"
experimental_readout = "mean fold growth"
recorded_number = 0.96

[[record]]
compound = "COc1ccc(N=Nc2cc(OC)c(OC)c(OC)c2)cc1F"
experimental_readout = "mean fold growth"
recorded_number = 0.95

[[record]]
compound = "COc1ccc(N=Nc2cc(OC)c(OC)c(OC)c2)cc1O"
experimental_readout = "mean fold growth"
recorded_number = 0.87

[[record]]
compound = "COc1ccc(N=Nc2cc(OC)c(OC)c(OC)c2)c(F)c1"
experimental_readout = "mean fold growth"
recorded_number = 0.89


Values compiled from patent US20170051149A1.
